Examples of binders with documented cAMP agonism, Emax follow.
TARGET DESC: T1, human GIP receptor (human, UniProt P48546 22-466)
T1 sequence (looked up): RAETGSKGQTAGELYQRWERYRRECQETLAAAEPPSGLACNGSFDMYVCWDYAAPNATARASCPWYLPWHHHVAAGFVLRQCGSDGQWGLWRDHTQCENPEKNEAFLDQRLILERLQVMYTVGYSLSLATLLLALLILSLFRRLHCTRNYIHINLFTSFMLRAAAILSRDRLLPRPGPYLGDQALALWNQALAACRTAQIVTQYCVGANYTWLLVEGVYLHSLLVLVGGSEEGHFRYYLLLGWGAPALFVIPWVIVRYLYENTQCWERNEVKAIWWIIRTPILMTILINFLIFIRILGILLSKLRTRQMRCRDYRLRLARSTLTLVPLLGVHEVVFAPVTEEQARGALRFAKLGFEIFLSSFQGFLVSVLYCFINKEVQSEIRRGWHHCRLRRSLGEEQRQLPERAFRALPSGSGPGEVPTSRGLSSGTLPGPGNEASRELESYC
ASSAY INFO: cell-based or functional assay
Ends that are not written are not given here. * marks the point of attachment. Stearoyl = CCCCCCCCCCCCCCCCCC(=O)*; Palmitoyl = CCCCCCCCCCCCCCCC(=O)*; Myristoyl = CCCCCCCCCCCCCC(=O)*; Dodecyl = CCCCCCCCCCCC*
Respond with the bare value in %.

// query State its cAMP agonism, Emax: EGTFISDYSIAMEKIAQQDFVNWLLAQK(Dodecyl)-NH2 [AT130 [hGIP(3-30)NH2[D15E; H18A]-C12/30]]
// result 49

// query State its cAMP agonism, Emax: EGTFISDYSIAMDK(Palmitoyl)IHQQDFVNWLLAQK-NH2 [AT105 [hGIP(3-30)NH2-C16/16]]
// result 34

// query State its cAMP agonism, Emax: EGTFISDYSIAMDKIHQQDFVNWLLAQK(Myristoyl)-NH2 [AT112 [hGIP(3-30)NH2-C14/30]]
// result 29

Next:
// query State its cAMP agonism, Emax: Stearoyl-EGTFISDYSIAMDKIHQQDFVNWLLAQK-NH2 [AT113 [hGIP(3-30)NH2-C18/3]]
// result 77
